tested.system: Coagulation factor X (Homo sapiens, UniProt P00742)
Sequence (P00742 41-179 limits assumed): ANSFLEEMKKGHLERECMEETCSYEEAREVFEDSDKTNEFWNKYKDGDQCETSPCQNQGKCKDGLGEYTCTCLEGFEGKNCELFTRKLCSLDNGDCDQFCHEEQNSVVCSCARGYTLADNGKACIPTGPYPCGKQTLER
Sequence (P00742 235-488 limits assumed): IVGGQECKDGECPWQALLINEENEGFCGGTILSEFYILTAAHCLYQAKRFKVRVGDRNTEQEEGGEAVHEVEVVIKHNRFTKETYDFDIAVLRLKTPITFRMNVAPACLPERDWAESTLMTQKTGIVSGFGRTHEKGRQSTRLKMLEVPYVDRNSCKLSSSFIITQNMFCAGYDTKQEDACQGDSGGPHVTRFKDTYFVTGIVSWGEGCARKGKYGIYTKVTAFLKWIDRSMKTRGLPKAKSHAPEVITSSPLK
Response field label: string, one of Condition met (Ki strictly below 3 nM) or Condition not met.

{"structure.as.smiles": "COC(=O)[C@H](Cc1cccc(C(=N)N)c1)[C@@H](C)NC(=O)c1ccc(-c2cccnc2)cc1", "category": "Condition not met"}
{"structure.as.smiles": "COC(=O)[C@H](Cc1cccc(C(=N)N)c1)[C@@H](C)NC(=O)c1ccc(-c2cc[n+](C)cc2)cc1", "category": "Condition met"}
{"structure.as.smiles": "COC(=O)[C@H](Cc1cccc(C(=N)N)c1)[C@@H](C)NC(=O)c1ccc(-c2cccc[n+]2C)cc1", "category": "Condition met"}
{"structure.as.smiles": "COC(=O)[C@H](Cc1cccc(C(=N)N)c1)[C@@H](C)NC(=O)c1ccc(-c2cccc[n+]2[O-])cc1", "category": "Condition met"}
{"structure.as.smiles": "COC(=O)[C@H](Cc1cccc(C(=N)N)c1)[C@@H](C)NC(=O)c1ccc(-c2ncc[nH]2)cc1", "category": "Condition not met"}
